Target: Histone deacetylase 2 (Homo sapiens, UniProt Q92769)
Sequence (Q92769 whole entry): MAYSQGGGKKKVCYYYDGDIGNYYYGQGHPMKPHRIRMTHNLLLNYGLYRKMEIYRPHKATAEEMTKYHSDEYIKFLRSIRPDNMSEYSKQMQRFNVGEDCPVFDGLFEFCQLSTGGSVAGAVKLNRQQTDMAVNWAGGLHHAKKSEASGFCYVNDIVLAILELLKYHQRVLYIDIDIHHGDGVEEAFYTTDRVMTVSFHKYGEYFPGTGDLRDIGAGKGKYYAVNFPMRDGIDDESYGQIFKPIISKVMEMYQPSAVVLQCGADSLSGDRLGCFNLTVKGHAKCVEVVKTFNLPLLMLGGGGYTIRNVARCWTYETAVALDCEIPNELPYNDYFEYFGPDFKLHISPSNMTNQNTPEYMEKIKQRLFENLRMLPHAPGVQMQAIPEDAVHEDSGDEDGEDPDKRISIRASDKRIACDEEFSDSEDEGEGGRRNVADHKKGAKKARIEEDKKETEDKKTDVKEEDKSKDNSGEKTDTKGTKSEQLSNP
Experiment: Inhibition of full length recombinant human C-terminal GST-tagged HDAC2 expressed in baculovirus-infected insect cells using RHKK(Ac)AMC as substrate after 60 mins by fluorimeter

Compound	Target Of Assay	Ki
CN1C(=O)[C@H]2CN(Cc3c2c2ccccc2n3Cc2ccc(C(=O)NO)cc2)C1=O	Histone deacetylase 2 (Homo sapiens, UniProt Q92769)	3200 nM
CN1C(=O)[C@@H]2CN(Cc3c2c2ccccc2n3Cc2ccc(C(=O)NO)cc2)C1=O	Histone deacetylase 2 (Homo sapiens, UniProt Q92769)	5200 nM
CN1C(=O)C2CN(Cc3c2c2cc(OCCN4CCOCC4)ccc2n3Cc2ccc(C(=O)NO)cc2)C1=O.Cl (stereo not drawn)	Histone deacetylase 2 (Homo sapiens, UniProt Q92769)	313 nM
CN1C(=O)C2CN(Cc3c2c2ccccc2n3Cc2cccc(/C=C/C(=O)NO)c2)C1=O (stereo not drawn)	Histone deacetylase 2 (Homo sapiens, UniProt Q92769)	768 nM
CN1C(=O)C2CN(Cc3c2c2ccccc2n3Cc2ccc(C(=O)O)cc2)C1=O (stereo not drawn)	Histone deacetylase 2 (Homo sapiens, UniProt Q92769)	> 10000 nM
CN1C(=O)C2CN(Cc3c2c2ccccc2n3Cc2ccc(C(=O)NO)cc2)C1=S (stereo not drawn)	Histone deacetylase 2 (Homo sapiens, UniProt Q92769)	469 nM
CN1CC2CN(Cc3c2c2ccccc2n3Cc2ccc(C(=O)NO)cc2)C1=O (stereo not drawn)	Histone deacetylase 2 (Homo sapiens, UniProt Q92769)	484 nM
CN1CN2Cc3c(c4ccccc4n3Cc3ccc(C(=O)NO)cc3)C(C2)C1=O (stereo not drawn)	Histone deacetylase 2 (Homo sapiens, UniProt Q92769)	1360 nM
CN1C(=O)C2CN(Cc3c2c2ccccc2n3Cc2ccc(C(=O)NO)cc2)C1=O (stereo not drawn)	Histone deacetylase 2 (Homo sapiens, UniProt Q92769)	774 nM
O=C(/C=C/c1ccc(Cn2c3c(c4ccccc42)CCN2C(=O)CCCC32)cc1)NO (stereo not drawn)	Histone deacetylase 2 (Homo sapiens, UniProt Q92769)	234 nM
CN1C(=O)N2Cc3c(c4ccccc4n3Cc3ccc(C(=O)NO)cc3)C(C2)C1=S (stereo not drawn)	Histone deacetylase 2 (Homo sapiens, UniProt Q92769)	943 nM
COc1ccc2c(c1)c1c(n2Cc2ccc(C(=O)NO)cc2)CN2CC1C(=O)N(C)C2 (stereo not drawn)	Histone deacetylase 2 (Homo sapiens, UniProt Q92769)	370 nM
COc1ccc2c3c(n(Cc4ccc(C(=O)NO)cc4)c2c1)CN1CC3C(=O)N(C)C1=O (stereo not drawn)	Histone deacetylase 2 (Homo sapiens, UniProt Q92769)	70.8 nM
